molecular target: Steryl-sulfatase (Homo sapiens); test: Inhibition of steroid sulfatase in human JEG3 cell lysates assessed as residual activity at 10 uM using [3H] E1S as substrate after 1 hr by scintillation spectrometry analysis relative to control; values are per cent of control; details: Lysate
I'd appreciate it if you could supply residual activity values for the items below.
Answers are plain numbers, in %.

[in] # residual activity lookup, item NS(=O)(=O)Oc1ccc(NC(=O)N2CCN(c3nccc(-c4cccc(Br)c4)n3)CC2)cc1
[out] 39.4

[in] Could you tell me which residual activity is on file for NS(=O)(=O)Oc1ccc(NC(=O)N2CCN(c3ccccc3)CC2)cc1 ?
[out] 16.9

[in] Entry Cc1ccccc1N1CCN(C(=O)Nc2ccc(OS(N)(=O)=O)cc2)CC1 : reported residual activity = ?
[out] 47.9

[in] What does the data say about its residual activity? Entry: Cc1cccc(N2CCN(C(=O)Nc3ccc(OS(N)(=O)=O)cc3)CC2)c1C
[out] 5.9

[in] Entry NS(=O)(=O)Oc1ccc(NC(=O)N2CCN(c3ccc(Cl)c(Cl)c3)CC2)cc1 : reported residual activity = ?
[out] 23

Could you report residual activity for every entry in the following list?
1. COc1ccc(-c2ccnc(N3CCN(C(=O)Nc4ccc(OS(N)(=O)=O)cc4)CC3)n2)cc1OC
2. Cc1cccc(N2CCN(C(=O)Nc3ccc(OS(N)(=O)=O)cc3F)CC2)c1C

[out]
60.7
109

Your task in this section: give residual activity for each listed record.
1. CCCCCCCCCCN1CCN(C(=O)Nc2ccc(OS(N)(=O)=O)cc2)CC1
2. Cc1cccc(-c2ccnc(N3CCN(C(=O)Nc4ccc(OS(N)(=O)=O)cc4)CC3)n2)c1
3. NS(=O)(=O)Oc1ccc(NC(=O)N2CCN(Cc3cc4ccccc4o3)CC2)cc1
4. Cc1cccc(N2CCN(C(=O)Nc3ccc(OS(N)(=O)=O)c(Cl)c3)CC2)c1C

[out]
1. 3.5
2. 26.7
3. 20.2
4. 15.1
